# Assayed System: human JAK2 (Homo sapiens, UniProt O60674)
# Construct: The kinase domain of human JAK2 was amplified; GST (N); made in house; host or cells: Sf9 insect cells (baculovirus)
# Sequence (O60674 849-1124 limits assumed): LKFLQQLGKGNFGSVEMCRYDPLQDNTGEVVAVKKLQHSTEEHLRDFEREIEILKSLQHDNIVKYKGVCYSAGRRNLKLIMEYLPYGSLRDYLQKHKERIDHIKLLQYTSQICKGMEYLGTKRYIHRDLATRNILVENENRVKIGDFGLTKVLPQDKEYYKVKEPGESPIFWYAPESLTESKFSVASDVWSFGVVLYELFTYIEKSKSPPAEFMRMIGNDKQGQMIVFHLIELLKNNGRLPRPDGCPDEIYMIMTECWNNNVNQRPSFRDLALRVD
# Protocol Text: Alphascreen tyrosine kinase enzyme assay, JAK2 kinase domain
# Format: biochemical
# Condition Set: read-out: JAK2 IC50_nM
pIC50: −log10 of the molar value.
Endpoint: pIC50

For the molecule Cc1cnc(Nc2ccc(N3CCOCC3)cc2)nc1Sc1ccc(NC(=O)/C(Br)=C\C(=O)O)cc1 , report pIC50.
< 6.00

For the molecule C=CC(=O)Nc1ccc(Sc2ccnc(Nc3cccc(S(=O)(=O)N4CCOCC4)c3)n2)cc1 , report pIC50.
< 6.00

For the molecule Cc1cnc(Nc2ccc(N3CCOCC3)cc2)nc1Sc1ccc(N)cc1Cl , report pIC50.
< 6.00

For the molecule Cc1cnc(Nc2ccc(N3CCOCC3)cc2)nc1Sc1ccc(N)nc1 , report pIC50.
> 6.30

* * *

# Assayed System: Bmx(h) (Homo sapiens)
# Construct: purchased Upstate Biotechnology (Dundee, UK), KinaseProfiler service
# Sequence (P51813 whole entry): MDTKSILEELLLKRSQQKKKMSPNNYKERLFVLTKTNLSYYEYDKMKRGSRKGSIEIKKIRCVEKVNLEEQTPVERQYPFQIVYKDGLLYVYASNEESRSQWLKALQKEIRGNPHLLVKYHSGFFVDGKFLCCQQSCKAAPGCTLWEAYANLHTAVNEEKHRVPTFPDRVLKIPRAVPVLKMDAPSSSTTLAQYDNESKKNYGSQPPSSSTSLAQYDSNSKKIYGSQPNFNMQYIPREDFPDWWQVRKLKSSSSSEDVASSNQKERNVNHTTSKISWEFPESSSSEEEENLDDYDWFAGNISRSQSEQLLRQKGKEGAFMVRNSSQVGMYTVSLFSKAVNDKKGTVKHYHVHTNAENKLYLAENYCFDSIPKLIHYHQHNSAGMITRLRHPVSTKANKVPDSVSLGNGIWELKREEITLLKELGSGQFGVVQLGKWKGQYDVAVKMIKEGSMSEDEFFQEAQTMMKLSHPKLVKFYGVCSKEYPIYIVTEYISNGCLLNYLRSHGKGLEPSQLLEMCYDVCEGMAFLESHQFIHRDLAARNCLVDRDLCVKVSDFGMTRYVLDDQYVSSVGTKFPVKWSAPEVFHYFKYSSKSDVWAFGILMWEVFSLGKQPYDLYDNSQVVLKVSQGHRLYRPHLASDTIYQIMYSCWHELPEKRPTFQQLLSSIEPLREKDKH
# Protocol Text: Upstate KinaseProfiler enzyme assay, Bmx
# Format: biochemical
# Condition Set: 500 nM compound; read-out: Percent inhibition at 500 nM Bmx(h)
I'd be grateful if you could share measured inhibition at 0.5 µM for these entries.
Answer with the number, then the unit.

For the compound Cc1cnc(Nc2ccc(N3CCOCC3)cc2)nc1Sc1ccc(N)cc1 [Compound 126] , report inhibition at 0.5 µM.
78%

For the compound C=CC(=O)Nc1ccc(Sc2ccnc(Nc3ccc(S(N)(=O)=O)cc3)n2)cc1 [Compound 352] , report inhibition at 0.5 µM.
100%

For the compound C=CC(=O)NCc1ccc(Sc2ccnc(Nc3ccc(N4CCOCC4)cc3)n2)cc1 [Compound 111] , report inhibition at 0.5 µM.
100%

For the compound N#Cc1nnn(Cc2ccc(Sc3ccnc(Nc4ccc(N5CCOCC5)cc4)n3)cc2)n1 [Compound 156] , report inhibition at 0.5 µM.
83%

For the compound C=CC(=O)Nc1ccc(Sc2nc(Nc3ccc(N4CCC(C(=O)OCC)CC4)cc3)ncc2C)cc1 [Compound 292] , report inhibition at 0.5 µM.
59%

For the compound O=C(/C=C/Cl)Nc1cccc(Sc2ccnc(Nc3ccc(N4CCOCC4)cc3)n2)c1 [Compound 340] , report inhibition at 0.5 µM.
92%

For the compound N#Cc1nnnn1Cc1ccc(Sc2ccnc(Nc3ccc(N4CCOCC4)cc3)n2)cc1 [Compound 155] , report inhibition at 0.5 µM.
86%

For the compound C=CC(=O)Nc1ccc(Sc2nc(Nc3ccc(N4CCOCC4)c(OC)c3)ncc2C)cc1 [Compound 248] , report inhibition at 0.5 µM.
91%

For the compound C=CC(=O)N1CCc2cc(Sc3nc(Nc4ccc(N5CCOCC5)cc4)ncc3C)ccc21 [Compound 170] , report inhibition at 0.5 µM.
97%

For the compound Cc1cnc(Nc2ccc(N3CCOCC3)cc2)nc1Sc1c(C)cc(N)cc1C [Compound 165] , report inhibition at 0.5 µM.
40%

For the compound C=CC(=O)Nc1cccc(Nc2nccc(Sc3ccc(OC)cc3)n2)c1 [Compound 42] , report inhibition at 0.5 µM.
100%

For the compound C=CC(=O)Nc1ccc(Sc2nc(Nc3ccc(OC)c(OC)c3)ncc2C)cc1 [Compound 241] , report inhibition at 0.5 µM.
92%

For the compound C=CC(=O)Nc1cccc(Sc2ccnc(Nc3ccc(OC)cc3)n2)c1 [Compound 120] , report inhibition at 0.5 µM.
100%

For the compound C=CC(=O)Nc1ccc(Sc2ccnc(Nc3ccc(N4CCS(=O)(=O)CC4)cc3)n2)cc1 [Compound 99] , report inhibition at 0.5 µM.
100%

For the compound C=CC(=O)N1CCCc2cc(Sc3nc(Nc4ccc(N5CCOCC5)cc4)ncc3C)ccc21 [Compound 168] , report inhibition at 0.5 µM.
92%

For the compound C=CC(=O)Nc1ccc(Sc2ccnc(Nc3ccc(F)c(C#N)c3)n2)cc1 [Compound 354] , report inhibition at 0.5 µM.
100%

For the compound C=CC(=O)Nc1ccc(Sc2ccnc(Nc3ccc(C#N)cc3)n2)cc1 [Compound 131] , report inhibition at 0.5 µM.
100%

For the compound C=CC(=O)Nc1ccc(Sc2nc(Nc3cccc(N4CCOCC4)c3)ncc2F)cc1 [Compound 267] , report inhibition at 0.5 µM.
89%

For the compound C=C(C)C(=O)Nc1cccc(Sc2ccnc(Nc3ccc(N4CCOCC4)cc3)n2)c1 [Compound 115] , report inhibition at 0.5 µM.
100%

For the compound C/C=C/C(=O)Nc1ccc(Sc2ccnc(Nc3ccc(N4CCOCC4)cc3)n2)cc1 [Compound 59] , report inhibition at 0.5 µM.
100%

For the compound C=CC(=O)Nc1ccc(Sc2ccnc(Nc3cccc(S(N)(=O)=O)c3)n2)cc1 [Compound 364] , report inhibition at 0.5 µM.
73%

For the compound C=CC(=O)Nc1ccc(Sc2nc(Nc3cccc(OC)c3)ncc2C)cc1 [Compound 235] , report inhibition at 0.5 µM.
79%

For the compound C=CC(=O)Nc1ccc(Sc2nc(Nc3ccc(N4CCOCC4)cc3)ncc2C)cc1 [Compound 124] , report inhibition at 0.5 µM.
100%

For the compound Cc1cc(N)ccc1Sc1nc(Nc2ccc(N3CCOCC3)cc2)ncc1C [Compound 162] , report inhibition at 0.5 µM.
55%

For the compound C=CC(=O)Nc1cccc(Sc2ccnc(Nc3ccc(N4CCOCC4)cc3)n2)c1 [Compound 23] , report inhibition at 0.5 µM.
100%

For the compound Cc1cnc(Nc2ccc(N3CCOCC3)cc2)nc1Sc1ccc(N2C(=O)CSCC2=O)cc1 [Compound 231] , report inhibition at 0.5 µM.
99%

For the compound C=CC(=O)Nc1ccc(Sc2nc(Nc3ccc(N4CCOCC4)cc3)ncc2-c2ccccc2)cc1 [Compound 307] , report inhibition at 0.5 µM.
29%

For the compound C=CC(=O)Nc1ccc(Sc2ccnc(Nc3ccc(OC)c(O)c3)n2)cc1 [Compound 97] , report inhibition at 0.5 µM.
100%

For the compound C=CC(=O)Nc1ccc(Sc2nc(Nc3cccc(CO)c3)ncc2C)cc1 [Compound 280] , report inhibition at 0.5 µM.
98%

For the compound C=CC(=O)Nc1ccc(Sc2ccnc(Nc3ccc(N4CCOCC4)cc3)n2)cc1 [Compound 25] , report inhibition at 0.5 µM.
97%

For the compound C=CC(=O)Nc1ccc(Sc2nc(Nc3cccc(N4CCN(C)CC4)c3)ncc2C)cc1 [Compound 243] , report inhibition at 0.5 µM.
96%

For the compound C=CC(=O)Nc1ccc(Sc2nc(Nc3ccc(N4CCN(C)CC4)cc3)ncc2C)cc1 [Compound 239] , report inhibition at 0.5 µM.
99%

For the compound C=CC(=O)Nc1ccc(Sc2nc(Nc3ccc(OCCCN(CC)CC)cc3)ncc2C)cc1 [Compound 291] , report inhibition at 0.5 µM.
99%

For the compound C=CC(=O)Nc1ccc(Sc2nc(Nc3ccc(C4CCN(C)CC4)cc3)ncc2C)cc1 [Compound 246] , report inhibition at 0.5 µM.
98%

* * *

Endpoint: IC50

Recall the reported IC50 of C=CC(=O)Nc1ccc(Sc2ccnc(Nc3ccc(N4CCS(=O)(=O)CC4)cc3)n2)cc1 [Compound 99] on human JAK3 (Homo sapiens, UniProt P52333) and write it down.
Sequence (P52333 822-1111 limits assumed): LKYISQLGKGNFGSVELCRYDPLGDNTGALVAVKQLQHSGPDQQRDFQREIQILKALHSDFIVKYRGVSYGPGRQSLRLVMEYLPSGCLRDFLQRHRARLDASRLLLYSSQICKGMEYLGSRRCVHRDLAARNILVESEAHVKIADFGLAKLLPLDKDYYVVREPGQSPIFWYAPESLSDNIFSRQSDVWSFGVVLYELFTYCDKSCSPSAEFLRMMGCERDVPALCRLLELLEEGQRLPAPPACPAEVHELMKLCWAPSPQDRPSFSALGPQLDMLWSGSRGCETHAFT
< 100 nM

Recall the reported IC50 of C=CC(=O)Nc1cccc(Nc2nccc(Sc3ccccn3)n2)c1 [Compound 2] on human JAK3 (Homo sapiens, UniProt P52333) and write it down.
< 100 nM

Recall the reported IC50 of Cc1cnc(Nc2ccc(N3CCOCC3)cc2)nc1Sc1ccc(C(=O)N2CCCC2)cc1 [Compound 224] on human JAK3 (Homo sapiens, UniProt P52333) and write it down.
< 500 nM

Recall the reported IC50 of C=CC(=O)Nc1ccc(Sc2nc(Nc3ccc(N4CCOCC4)cc3)ncc2Br)cc1 [Compound 306] on human JAK3 (Homo sapiens, UniProt P52333) and write it down.
< 100 nM

Recall the reported IC50 of C=CC(=O)Nc1ccc(Sc2ccnc(Nc3ccc(OC)cc3)n2)cc1 [Compound 74] on human JAK3 (Homo sapiens, UniProt P52333) and write it down.
< 100 nM

Recall the reported IC50 of c1cn(Cc2ccc(Sc3ccnc(Nc4ccc(N5CCOCC5)cc4)n3)cc2)cn1 [Compound 127] on human JAK3 (Homo sapiens, UniProt P52333) and write it down.
< 500 nM

Recall the reported IC50 of C=CC(=O)NCc1ccc(Sc2ccnc(Nc3ccc(N4CCOCC4)cc3)n2)cc1 [Compound 111] on human JAK3 (Homo sapiens, UniProt P52333) and write it down.
< 100 nM

Recall the reported IC50 of N#Cc1nccc(Sc2ccc(Sc3ccnc(Nc4ccc(N5CCOCC5)cc4)n3)cc2)n1 [Compound 154] on human JAK3 (Homo sapiens, UniProt P52333) and write it down.
< 500 nM

Recall the reported IC50 of C=CC(=O)Nc1ccc(Sc2ccnc(Nc3ccc(S(N)(=O)=O)cc3)n2)cc1 [Compound 352] on human JAK3 (Homo sapiens, UniProt P52333) and write it down.
< 100 nM

Recall the reported IC50 of Cc1cnc(Nc2ccc(N3CCOCC3)cc2)nc1Sc1ccc2c(c1)CCCN2 [Compound 166] on human JAK3 (Homo sapiens, UniProt P52333) and write it down.
< 500 nM

Recall the reported IC50 of C=CC(=O)Nc1ccc(Sc2nc(Nc3cccc(NS(C)(=O)=O)c3)ncc2C)cc1 [Compound 288] on human JAK3 (Homo sapiens, UniProt P52333) and write it down.
< 100 nM

Recall the reported IC50 of Cc1cnc(Nc2ccc(N3CCOCC3)cc2)nc1Sc1ccc(NC(=O)/C(Br)=C\C(=O)O)cc1 [Compound 381] on human JAK3 (Homo sapiens, UniProt P52333) and write it down.
< 500 nM

Recall the reported IC50 of C=CC(=O)Nc1ccc(Sc2ccnc(Nc3ccc(S(=O)(=O)NCc4ccccc4)cc3)n2)cc1 [Compound 368] on human JAK3 (Homo sapiens, UniProt P52333) and write it down.
< 100 nM

Recall the reported IC50 of CON(C)C(=O)c1ccc(Sc2nc(Nc3ccc(N4CCOCC4)cc3)ncc2C)cc1 [Compound 218] on human JAK3 (Homo sapiens, UniProt P52333) and write it down.
< 500 nM

Recall the reported IC50 of NCc1cccc(Sc2ccnc(Nc3ccc(N4CCOCC4)cc3)n2)c1 [Compound 75] on human JAK3 (Homo sapiens, UniProt P52333) and write it down.
< 500 nM

Recall the reported IC50 of C=CC(=O)Nc1ccc(Sc2ccnc(Nc3ccc(C#N)cc3)n2)cc1 [Compound 131] on human JAK3 (Homo sapiens, UniProt P52333) and write it down.
< 100 nM

Recall the reported IC50 of Cc1cnc(Nc2ccc(N3CCN(C)CC3)cc2)nc1Sc1ccc(N)cc1 [Compound 244] on human JAK3 (Homo sapiens, UniProt P52333) and write it down.
< 100 nM

Recall the reported IC50 of C=CC(=O)Nc1ccc(Sc2nc(Nc3cccc(O)c3)ncc2C)cc1 [Compound 281] on human JAK3 (Homo sapiens, UniProt P52333) and write it down.
< 100 nM

Recall the reported IC50 of C=CC(=O)Nc1ccc(Sc2ccnc(Nc3cccc(N4CCCC4)c3)n2)cc1 [Compound 355] on human JAK3 (Homo sapiens, UniProt P52333) and write it down.
< 100 nM

Recall the reported IC50 of OCc1ccc(Sc2ccnc(Nc3ccc(N4CCOCC4)cc3)n2)cc1 [Compound 67] on human JAK3 (Homo sapiens, UniProt P52333) and write it down.
< 500 nM

Recall the reported IC50 of COC(=O)COCC(=O)Nc1ccc(Sc2nc(Nc3ccc(N4CCOCC4)cc3)ncc2C)cc1 [Compound 189] on human JAK3 (Homo sapiens, UniProt P52333) and write it down.
< 500 nM

Recall the reported IC50 of C=CC(=O)Nc1ccc(Sc2nc(Nc3ccc(N4CCC(O)C4)cc3)ncc2C)cc1 (stereo not shown) [Compound 295] on human JAK3 (Homo sapiens, UniProt P52333) and write it down.
< 100 nM

Recall the reported IC50 of C=CC(=O)Nc1cc(C)c(Sc2nc(Nc3ccc(N4CCOCC4)cc3)ncc2C)c(C)c1 [Compound 164] on human JAK3 (Homo sapiens, UniProt P52333) and write it down.
< 100 nM

Recall the reported IC50 of CCOC(=O)/C=C\C(=O)Nc1ccc(Sc2nc(Nc3ccc(N4CCOCC4)cc3)ncc2C)cc1 [Compound 388] on human JAK3 (Homo sapiens, UniProt P52333) and write it down.
< 100 nM

Recall the reported IC50 of C=CC(=O)Nc1ccc(Sc2ccnc(Nc3cccc(Cl)c3)n2)cc1 [Compound 348] on human JAK3 (Homo sapiens, UniProt P52333) and write it down.
< 100 nM

Recall the reported IC50 of C=CC(=O)Nc1ccc(Sc2ccnc(Nc3cccc(S(=O)(=O)NCc4ccccc4)c3)n2)cc1 [Compound 366] on human JAK3 (Homo sapiens, UniProt P52333) and write it down.
< 100 nM

Recall the reported IC50 of Nc1ccc(Sc2nc(Nc3ccc(N4CCOCC4)cc3)ncc2Cl)cc1 [Compound 318] on human JAK3 (Homo sapiens, UniProt P52333) and write it down.
< 100 nM

Recall the reported IC50 of C=CC(=O)Nc1ccc(Sc2nc(Nc3ccc(C)c(Br)c3)ncc2C)cc1 [Compound 242] on human JAK3 (Homo sapiens, UniProt P52333) and write it down.
< 500 nM

Recall the reported IC50 of C=CC(=O)Nc1ccc(Sc2nc(Nc3ccc(C4CCN(C)CC4)cc3)ncc2C)cc1 [Compound 246] on human JAK3 (Homo sapiens, UniProt P52333) and write it down.
< 100 nM

Recall the reported IC50 of C=CC(=O)Nc1ccc(Sc2nc(Nc3ccc(N4CCOCC4)cc3)ncc2I)cc1 [Compound 313] on human JAK3 (Homo sapiens, UniProt P52333) and write it down.
< 100 nM

Recall the reported IC50 of Cc1cnc(Nc2ccc(N3CCOCC3)cc2)nc1Sc1ccc(N2C(=O)CSCC2=O)cc1 [Compound 231] on human JAK3 (Homo sapiens, UniProt P52333) and write it down.
< 100 nM

Recall the reported IC50 of Cc1cnc(Nc2ccc(N3CCOCC3)cc2)nc1Sc1ccc(N)nc1 [Compound 262] on human JAK3 (Homo sapiens, UniProt P52333) and write it down.
< 500 nM

Recall the reported IC50 of O=C(/C=C/Cl)Nc1cccc(Sc2ccnc(Nc3ccc(N4CCOCC4)cc3)n2)c1 [Compound 340] on human JAK3 (Homo sapiens, UniProt P52333) and write it down.
< 100 nM

Recall the reported IC50 of C=CC(=O)Nc1cccc(Nc2nccc(Sc3cccc(OC)c3)n2)c1 [Compound 31] on human JAK3 (Homo sapiens, UniProt P52333) and write it down.
< 100 nM
